Source of measurements: PubChem BioAssay AID504765

Molecular target: glucose-6-phosphate dehydrogenase-6-phosphogluconolactonase (Plasmodium falciparum 3D7)
Test: concentration-dependent PfGluPho enzyme inhibition – biochemical, fluorescence intensity, dose response (AID 504765)
Settings: Recombinant PfG6PD enzyme, fluorescence intensity (NADPH)
Active and inactive are the calls of the source. No rule for the calls is given here.
Experimental readout: IC50

> print(dat)
                                   compound  experimental.readout  measured.result
1   CC(=O)Nc1cc([N+](=O)[O-])ccc1OCc1ccccc1                  IC50          19.8 µM
2  CS(=O)(=O)c1ccc(N)c(SSc2cc(S(C)(=O)=O)ccc2N)c1                  IC50          4.07 µM
3          C(=N\Nc1nc2ccccc2[nH]1)/c1ccccn1                  IC50          5.24 µM
4       CC(C)c1nnc(NC(=O)c2sc3ccccc3c2Cl)s1                  IC50          6.44 µM
5       CC(=O)Nc1ccc2c(=O)n(-c3ccccc3)sc2c1                  IC50          8.52 µM
6   CC1=CC(=NOC(=O)/C=C/c2ccccc2)C=C(C)C1=O                  IC50          13.9 µM
7         CN=c1scc(C)n1/N=C/c1ccc(O)c(O)c1O                  IC50          3.98 µM
8  Cc1nnc(SCC(=O)c2cc(C)n(-c3ccc4c(c3)OCO4)c2C)s1                  IC50          7.35 µM

State its IC50 on glucose-6-phosphate dehydrogenase-6-phosphogluconolactonase (Plasmodium falciparum 3D7): COc1cc(NCCCn2cnc(C(=O)Nc3ccc(C)c(C)c3)n2)cc(OC)c1OC
> 80 µM (inactive)
